Reference for the values: ChEMBL document CHEMBL2396540

species on record: Homo sapiens; assay: Selectivity ratio of Ki for human dopamine D2L receptor to Ki for human dopamine D3 receptor
// classify: if (Ratio Ki < 2) Yes else No

Worked examples follow.
[[record]]
smiles_code = "CN(C)c1ccc(Cc2ccc3c4c2-c2c(ccc(O)c2O)C[C@H]4N(C)CC3)cc1"
qualitative_label = "Yes"

[[record]]
smiles_code = "CN1CCc2ccc(Cc3ccc(O)cc3)c3c2[C@H]1Cc1ccc(O)c(O)c1-3"
qualitative_label = "Yes"

[[record]]
smiles_code = "CN1CCc2ccc(Cc3ccccc3)c3c2[C@H]1Cc1ccc(O)c(O)c1-3"
qualitative_label = "Yes"

[[record]]
smiles_code = "CN1CCc2ccc(CO)c3c2[C@H]1Cc1ccc(O)c(O)c1-3"
qualitative_label = "No"

[[record]]
smiles_code = "Cc1ccc2c3c1-c1c(ccc(O)c1O)C[C@H]3N(C)CC2"
qualitative_label = "No"


Item CN1CCc2ccc(Cc3ccc(O)c4ccccc34)c3c2[C@H]1Cc1ccc(O)c(O)c1-3 : Ratio Ki beneath 2, strictly?
Yes

###

species: Homo sapiens; experiment: Selectivity ratio of Ki for human dopamine D1 receptor to Ki for human dopamine D2L receptor
test.readout: Ratio Ki
Format: numeric value only, no unit, no commentary.

Below: 5 molecules and their reported Ratio Ki.
[[record]]
smiles_code = "Cc1ccc2c3c1-c1c(ccc(O)c1O)C[C@H]3N(C)CC2"
assay_value = 3.4

[[record]]
smiles_code = "CN1CCc2ccc(CO)c3c2[C@H]1Cc1ccc(O)c(O)c1-3"
assay_value = 22

[[record]]
smiles_code = "CN1CCc2ccc(Cc3ccccc3)c3c2[C@H]1Cc1ccc(O)c(O)c1-3"
assay_value = 2.2

[[record]]
smiles_code = "CN(C)c1ccc(Cc2ccc3c4c2-c2c(ccc(O)c2O)C[C@H]4N(C)CC3)cc1"
assay_value = 1.7

[[record]]
smiles_code = "CN1CCc2ccc(Cc3ccc(O)cc3)c3c2[C@H]1Cc1ccc(O)c(O)c1-3"
assay_value = 0.8


For this molecule ( CN1CCc2ccc(Cc3ccc(O)c4ccccc34)c3c2[C@H]1Cc1ccc(O)c(O)c1-3 ), measured Ratio Ki is 2.6

###

target: D(2) dopamine receptor (Homo sapiens); experiment: Agonist activity at human dopamine D2L receptor expressed in HEK293 cells assessed as forskolin-stimulated cAMP accumulation after 15 mins
Sequence (P14416 whole entry): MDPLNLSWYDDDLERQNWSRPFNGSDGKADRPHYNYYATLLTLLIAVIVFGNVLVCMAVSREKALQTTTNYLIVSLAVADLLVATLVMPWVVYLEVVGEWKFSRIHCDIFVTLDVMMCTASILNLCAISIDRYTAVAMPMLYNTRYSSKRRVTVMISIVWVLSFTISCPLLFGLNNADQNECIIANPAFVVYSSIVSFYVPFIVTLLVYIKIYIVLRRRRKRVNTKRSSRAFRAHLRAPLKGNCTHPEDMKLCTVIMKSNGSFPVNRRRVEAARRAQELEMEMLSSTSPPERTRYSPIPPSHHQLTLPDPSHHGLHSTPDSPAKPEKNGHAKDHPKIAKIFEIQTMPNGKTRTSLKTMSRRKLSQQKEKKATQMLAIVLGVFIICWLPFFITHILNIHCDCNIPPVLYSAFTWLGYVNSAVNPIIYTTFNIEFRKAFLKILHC
test.readout: EC50 (nM)
Express your answer in nM, writing the number without its unit.

[[record]]
smiles_code = "CN1CCc2ccc(CO)c3c2[C@H]1Cc1ccc(O)c(O)c1-3"
measurement_target = "D(2) dopamine receptor (Homo sapiens)"
assay_value = 3.4

[[record]]
smiles_code = "CN1CCc2ccc(Cc3ccc(O)cc3)c3c2[C@H]1Cc1ccc(O)c(O)c1-3"
measurement_target = "D(2) dopamine receptor (Homo sapiens)"
assay_value = 2.7

[[record]]
smiles_code = "CN1CCc2ccc(Cc3ccccc3)c3c2[C@H]1Cc1ccc(O)c(O)c1-3"
measurement_target = "D(2) dopamine receptor (Homo sapiens)"
assay_value = 49


For this compound ( Cc1ccc2c3c1-c1c(ccc(O)c1O)C[C@H]3N(C)CC2 ), measured EC50 is 5.1

For this compound ( CN1CCc2ccc(Cc3ccc(O)c4ccccc34)c3c2[C@H]1Cc1ccc(O)c(O)c1-3 ), measured EC50 is 76

For this compound ( CN(C)c1ccc(Cc2ccc3c4c2-c2c(ccc(O)c2O)C[C@H]4N(C)CC3)cc1 ), measured EC50 is 174
